# Study target: wild-type Androgen Receptor (AR-wt) (Homo sapiens (Human), UniProt P10275)
# Sequence (P10275 whole entry): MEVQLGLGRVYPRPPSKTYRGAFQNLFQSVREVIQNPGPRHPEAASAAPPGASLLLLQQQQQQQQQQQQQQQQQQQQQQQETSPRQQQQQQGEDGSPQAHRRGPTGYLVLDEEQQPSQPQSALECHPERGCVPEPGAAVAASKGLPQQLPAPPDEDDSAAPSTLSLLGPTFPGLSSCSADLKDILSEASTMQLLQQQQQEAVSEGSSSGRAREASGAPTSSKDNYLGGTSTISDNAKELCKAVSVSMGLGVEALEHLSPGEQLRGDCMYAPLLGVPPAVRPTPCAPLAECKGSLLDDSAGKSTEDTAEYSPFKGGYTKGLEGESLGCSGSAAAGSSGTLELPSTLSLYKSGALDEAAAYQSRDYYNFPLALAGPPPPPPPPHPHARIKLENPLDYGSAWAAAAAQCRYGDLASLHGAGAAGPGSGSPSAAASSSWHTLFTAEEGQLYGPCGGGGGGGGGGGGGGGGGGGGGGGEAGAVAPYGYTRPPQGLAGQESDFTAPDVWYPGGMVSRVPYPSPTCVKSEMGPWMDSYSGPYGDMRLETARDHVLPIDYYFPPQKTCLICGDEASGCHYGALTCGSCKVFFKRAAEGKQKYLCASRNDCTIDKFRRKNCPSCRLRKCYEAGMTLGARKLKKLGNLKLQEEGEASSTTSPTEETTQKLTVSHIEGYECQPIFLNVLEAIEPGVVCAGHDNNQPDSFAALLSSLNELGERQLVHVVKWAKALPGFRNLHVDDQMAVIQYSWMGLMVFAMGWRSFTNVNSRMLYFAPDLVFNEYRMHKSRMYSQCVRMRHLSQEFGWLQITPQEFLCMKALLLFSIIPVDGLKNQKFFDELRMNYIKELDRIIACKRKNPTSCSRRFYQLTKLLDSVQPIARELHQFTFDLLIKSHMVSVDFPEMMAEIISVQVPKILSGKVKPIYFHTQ
# Assay overview: LNCaP-AR-wt ANT reporter assay (antagonist mode)
# Type: cell-based
# Condition parameters: antagonist mode; pIC50 = −Log10(IC50 in Molar); read-out: LNCaP-AR-wt ANT pIC50 (converted)
Attribute measured: IC50 (nM)
Dear colleague, please return just the value in nM, with no unit written.

Consider the reported IC50 for these molecules:
Cc1cc(N2C(=O)C3(CCC3)N(c3cnc(OC4CCN(C)CC4)nc3)C2=S)cnc1C#N [Cpd 247]    1000
N#Cc1ncc(N2C(=O)C3(CCC3)N(c3ccc(CC4CCNCC4)cc3)C2=S)cc1C(F)(F)F [Cpd 234]    479
C=CCN1CCC(Oc2ccc(N3C(=S)N(c4cnc(C#N)c(C)c4)C(=O)C34CCC4)cn2)CC1 [Cpd 99]    174
CNC1CCC(Oc2ccc(N3C(=S)N(c4cnc(C#N)c(C(F)(F)F)c4)C(=O)C34CCC4)cc2)CC1 (stereo not shown) [Cpd 80]    25.1
N#Cc1ncc(N2C(=O)C3(CCC3)N(c3ccc(O[C@H]4CCN[C@H](CO)C4)cc3)C2=S)cc1C(F)(F)F (racemic) [Cpd 222]    129

Record summary for CN1CCC(C)(Oc2ccc(N3C(=S)N(c4cnc(C#N)c(C(F)(F)F)c4)C(=O)C34CCC4)cc2)CC1 [Cpd 143] : reported IC50 = 1350

Record summary for N#Cc1ncc(N2C(=O)C3(CCC3)N(c3ccc(OC4CCN(CCO)CC4)nc3)C2=S)cc1Cl [Cpd 79] : reported IC50 = 6.76

----------
# Study target: wild-type Androgen Receptor (AR-wt) (Homo sapiens (Human), UniProt P10275)
# Assay overview: LNCaP-AR-wt ANT reporter assay (antagonist mode)
# Type: cell-based
# Condition parameters: antagonist mode; pIC50 = −Log10(IC50 in Molar); read-out: LNCaP-AR-wt ANT pIC50 (converted)
Cut-off 500 nM on IC50: below means fulfilled, at or above means not fulfilled.

The following compounds have reported results that may help.
N#Cc1ncc(N2C(=O)C3(CCC3)N(c3ccc4nn(CCO)cc4c3)C2=S)cc1Cl [Cpd 162]    fulfilled
CN1CC[C@H](CNC(=O)c2ccc(N3C(=S)N(c4cnc(C#N)c(C(F)(F)F)c4)C(=O)C34CCC4)cc2)C1 [Cpd 206]    not fulfilled
COCc1ccc(-c2ccc(N3C(=S)N(c4cnc(C#N)c(C)c4)C(=O)C34CCC4)cc2)o1 [Cpd 6]    fulfilled

Lookup: For Cc1cc(N2C(=O)C3(CCC3)N(c3ccc(N4CCNC4=O)cc3)C2=S)cnc1C#N [Cpd 9] , is the recorded IC50 below the cut-off of 500 nM?
Found: not fulfilled

Lookup: For N#Cc1ncc(N2C(=O)C3(CCC3)N(c3ccc(OC4CCNC5(CCC5)C4)cc3)C2=S)cc1C(F)(F)F (racemic) [Cpd 151] , is the recorded IC50 below the cut-off of 500 nM?
Found: fulfilled

----------
# Study target: F876L mutant Androgen Receptor (AR-F876L) (Homo sapiens (Human), UniProt P10275, F877L)
# Sequence (P10275 whole entry F877L): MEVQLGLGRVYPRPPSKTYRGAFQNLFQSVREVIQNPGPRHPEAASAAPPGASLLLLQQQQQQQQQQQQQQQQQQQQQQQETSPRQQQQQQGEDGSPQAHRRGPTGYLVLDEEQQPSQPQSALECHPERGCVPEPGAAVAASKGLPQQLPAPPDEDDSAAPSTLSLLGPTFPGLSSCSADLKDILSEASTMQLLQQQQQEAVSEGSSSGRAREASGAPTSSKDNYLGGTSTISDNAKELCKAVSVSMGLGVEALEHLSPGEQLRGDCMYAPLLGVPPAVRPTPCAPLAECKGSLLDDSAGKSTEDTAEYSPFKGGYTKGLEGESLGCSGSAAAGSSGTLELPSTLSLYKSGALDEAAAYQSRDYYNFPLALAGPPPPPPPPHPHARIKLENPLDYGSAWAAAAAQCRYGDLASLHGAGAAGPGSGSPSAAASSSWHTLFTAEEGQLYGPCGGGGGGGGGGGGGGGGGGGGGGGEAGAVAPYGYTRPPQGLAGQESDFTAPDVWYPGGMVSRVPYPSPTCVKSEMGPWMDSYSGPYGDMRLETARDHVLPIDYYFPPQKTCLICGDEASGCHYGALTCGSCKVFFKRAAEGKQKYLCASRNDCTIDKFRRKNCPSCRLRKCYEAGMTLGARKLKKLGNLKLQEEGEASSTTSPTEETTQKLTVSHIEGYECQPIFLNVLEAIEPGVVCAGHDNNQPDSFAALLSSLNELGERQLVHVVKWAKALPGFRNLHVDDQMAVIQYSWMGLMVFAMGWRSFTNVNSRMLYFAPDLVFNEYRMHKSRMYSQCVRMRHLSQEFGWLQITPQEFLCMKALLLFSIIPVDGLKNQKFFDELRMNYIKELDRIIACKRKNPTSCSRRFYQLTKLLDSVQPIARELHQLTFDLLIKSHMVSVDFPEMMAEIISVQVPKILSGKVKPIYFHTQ
# Assay overview: LNCaP-AR-F876L ANT reporter assay (antagonist mode)
# Format: cell-based
# Condition parameters: antagonist mode; pIC50 = −Log10(IC50 in Molar); read-out: LNCaP-AR-F876L ANT pIC50 (converted)
Attribute measured: log10(IC50) (log10 of the value in nM)
Response schema: value (number) is log10 of IC50 in units of nM.

Record summary for `CN1CC[C@H](CNC(=O)c2ccc(N3C(=S)N(c4cnc(C#N)c(C(F)(F)F)c4)C(=O)C34CCC4)cc2F)C1` : reported log10(IC50) = 2.96

Record summary for CN1CCC12CC(Oc1ccc(N3C(=S)N(c4cnc(C#N)c(C(F)(F)F)c4)C(=O)C34CCC4)cn1)C2 (stereo not shown) : reported log10(IC50) = 2.28

Record summary for N#Cc1ncc(N2C(=O)C3(CCC3)N(c3ccc(OC4CC5(CCN5)C4)cc3)C2=S)cc1C(F)(F)F (stereo not shown) : reported log10(IC50) = 2.10

Record summary for `N#Cc1ncc(N2C(=O)C3(CCC3)N(c3ccc4nn(CC5CCNCC5)cc4c3)C2=S)cc1C(F)(F)F` : reported log10(IC50) = 2.31

Record summary for `N#Cc1ncc(N2C(=O)C3(CCC3)N(c3ccc(OC4CCN(CC(F)(F)F)CC4)cc3)C2=S)cc1C(F)(F)F` : reported log10(IC50) = 3.00

Record summary for `CN1CCC(Cc2ccc(N3C(=S)N(c4cnc(C#N)c(C(F)(F)F)c4)C(=O)C34CCC4)cc2)CC1` : reported log10(IC50) = 2.67

Record summary for `N#Cc1ncc(N2C(=O)C3(CCC3)N(c3ccc(OC4CCN(CCO)CC4)nc3)C2=S)cc1C(F)(F)F` : reported log10(IC50) = 1.84

----------
# Study target: wild-type Androgen Receptor (AR-wt) (Homo sapiens (Human), UniProt P10275)
# Assay overview: LNCaP-AR-wt ANT reporter assay (antagonist mode)
# Format: cell-based
# Condition parameters: maximum % inhibition of R1881 control response over the tested concentration range; read-out: LNCaP-AR-wt ANT MAX % Inh
Attribute measured: Emax (%)
Dear colleague, please return just the value in %, with no unit written.

Consider the reported Emax for these compounds:
COc1cc(N2C(=S)N(c3cnc(C#N)c(C)c3)C(=O)C23CCC3)ccc1-c1ccc(C)o1    98.8
CN(C)C1CCC(Oc2ccc(N3C(=S)N(c4cnc(C#N)c(C(F)(F)F)c4)C(=O)C34CCC4)cc2)CC1 (stereo not drawn)    102
N#Cc1ncc(N2C(=O)C3(CCC3)N(c3ccc(OCC4(N)COC4)cc3)C2=S)cc1C(F)(F)F    101

Record summary for `CCOC(=O)N1CCN(C(=O)c2ccc(N3C(=S)N(c4cnc(C#N)c(C(F)(F)F)c4)C(=O)C34CCC4)cc2)CC1` : reported Emax = 80.3

Record summary for N#Cc1ncc(N2C(=O)C3(CCC3)N(c3ccc(OC4CCC(N)CC4)cc3)C2=S)cc1C(F)(F)F (stereo not drawn) : reported Emax = 101

Record summary for N#Cc1ncc(N2C(=O)C3(CCC3)N(c3ccc(O[C@H]4CCNC[C@@H]4F)cc3)C2=S)cc1C(F)(F)F (racemic) : reported Emax = 101

Record summary for `COc1cc(N2C(=O)C3(CCC3)N(c3ccc(OC4CCN(C)CC4)cc3)C2=S)cnc1C#N` : reported Emax = 102

Record summary for `COCCN1CCC(Oc2ccc(N3C(=S)N(c4cnc(C#N)c(Cl)c4)C(=O)C34CCC4)cn2)CC1` : reported Emax = 98.8

Record summary for N#Cc1ncc(N2C(=O)C3(CCC3)N(c3ccc(C4CC5CCC(C4)N5)cc3)C2=S)cc1C(F)(F)F (stereo not drawn) : reported Emax = 103

Record summary for `N#Cc1ncc(N2C(=O)C3(CCC3)N(c3ccc4nn(CCO)cc4c3)C2=S)cc1Cl` : reported Emax = 96.4

Record summary for `N#Cc1ncc(N2C(=O)C3(CCC3)N(c3ccc(O)nc3)C2=S)cc1Cl` : reported Emax = 92.9

Record summary for `N#Cc1ncc(N2C(=O)C3(CCC3)N(c3ccc4nn(CC5CCNCC5)cc4c3)C2=S)cc1C(F)(F)F` : reported Emax = 101

Record summary for CC(C)(C)OC(=O)N1CCC12CC(Oc1ccc(N3C(=S)N(c4cnc(C#N)c(C(F)(F)F)c4)C(=O)C34CCC4)cn1)C2 (stereo not drawn) : reported Emax = 101

Record summary for `N#Cc1ncc(N2C(=O)C3(CCC3)N(c3ccc4c(cnn4CCO)c3)C2=S)cc1C(F)(F)F` : reported Emax = 100

Record summary for CC(C)(C)OC(=O)NC1C(C)(C)C(Oc2ccc(N3C(=S)N(c4cnc(C#N)c(C(F)(F)F)c4)C(=O)C34CCC4)cc2)C1(C)C (stereo not drawn) : reported Emax = 101

Record summary for N#Cc1ncc(N2C(=O)C3(CCC3)N(c3ccc(OC4CC5CCC(N5)C4F)cc3)C2=S)cc1C(F)(F)F (stereo not drawn) : reported Emax = 105

----------
# Test system: rGABA-gated Cl− channel
# Assay overview: GABA-Gated Cl Channel Antagonist Radioligand Binding Assay
# Set-up: species or system rat
# Condition parameters: 10 μM single point, [35S]-TBPS, cerebral cortex membrane homogenates
Attribute measured: rGABA-gated Cl− channel % inh @10 μM
State the value, then name its unit.

Consider the reported rGABA-gated Cl− channel % inh @10 μM for these compounds:
CC(=O)N1CC(F)(F)CC1COc1ccc(N2C(=S)N(c3cnc(C#N)c(C(F)(F)F)c3)C(=O)C23CCC3)cc1 (stereo not shown)    82.1%
COc1cc(N2C(=O)C3(CCC3)N(c3ccc(OC4CCNCC4)cc3)C2=S)cnc1C#N    −22.2%

Record summary for `CN1CCC(Oc2ncc(N3C(=S)N(c4cnc(C#N)c(C(F)(F)F)c4)C(=O)C34CCC4)cn2)CC1` : reported rGABA-gated Cl− channel % inh @10 μM = 15.1%

Record summary for `COCCN1CCC(Oc2ccc(N3C(=S)N(c4cnc(C#N)c(C(F)(F)F)c4)C(=O)C34CCC4)cn2)CC1` : reported rGABA-gated Cl− channel % inh @10 μM = 26.1%
